target: HLA-A*02:01; test: IEDB peptide-MHC binding, purified MHC/competitive/radioactivity; bounds were set here for any values at or beyond the usual limits of such assays; details: source organism: Vaccinia virus WR
// NB: equality with 2000 nM counts as 0; only IC50 strictly below is 1

Q: Dear reviewer, please state whether VILKDPRIA has IC50 strictly beneath 2000 nM.
A: 1

Q: Is 2000 nM strictly greater than the sequence's reported IC50? sequence: VLTSVDIETA
A: 1

Q: I'd appreciate it if you could check whether ILTREMGFL has IC50 smaller than 2000 nM.
A: 0

Q: In the record for YLKIGTLLV , is IC50 less than 2000 nM?
A: 1

Q: Please determine if RLRYNLCKYL is below 2000 nM in terms of IC50.
A: 0

Q: State whether 2000 nM exceeds IC50 recorded for TVASAQIHL .
A: 0

Q: Is the reported IC50 for IAVFDSKLI strictly below 2000 nM?
A: 0

Q: Say whether its IC50 is strictly beneath 2000 nM. Entry: SITKEKIKI
A: 0

Q: Check if IC50 falls below 2000 nM for LLPGFVLTCI .
A: 1

Q: # strict comparison: is reported IC50 < 2000 nM? input = KLLISKGIEI
A: 1

Q: Quick check: IC50 of CVDHPFIYVI under 2000 nM?
A: 0

Q: Does FTNSQIFNI have IC50 strictly under 2000 nM?
A: 1

Q: Please indicate whether the reported IC50 of VLQQNNSFII is strictly below 2000 nM.
A: 1

Q: Does this sequence meet the criterion IC50 < 2000 nM? VTINNLKMML
A: 0

Q: Hello, is IC50 of the following sequence strictly smaller than 2000 nM? PIIYSKAGNI
A: 1

Q: Does this sequence meet the criterion IC50 < 2000 nM? YQLFSDAKA
A: 1

Q: Dear reviewer, please state whether IISSKQYPA has IC50 strictly beneath 2000 nM.
A: 1

Q: In plain terms, does FLVFVKPTT come in under 2000 nM for IC50?
A: 1

Q: I'd appreciate it if you could check whether NLFTFLHEI has IC50 smaller than 2000 nM.
A: 1

Q: Identify whether the sequence SLLVIWILIV records IC50 below 2000 nM.
A: 1

Q: Would you kindly verify if IC50 of TLNTLITLI is strictly less than 2000 nM?
A: 1
